- test: Phase I plasma pharmacokinetics in patients
- Type: in vivo, human
- details: human, plasma, po, 100 mg, Day 1, 100 mg b.i.d. p.o. (n=3), mean, course 1
observable: AUC(0-inf) (µg·h/mL)

CC[C@H](CO)Nc1nc(NCc2ccccc2)c2ncn(C(C)C)c2n1 [Seliciclib] ... 1.92

====

- test: Phase I plasma pharmacokinetics in patients
- Type: in vivo, human
- details: human, plasma, po, 100 mg, Day 7, 100 mg b.i.d. p.o. (n=3), mean, course 1; read-out: t1/2
observable: half-life (h)

CC[C@H](CO)Nc1nc(NCc2ccccc2)c2ncn(C(C)C)c2n1 ... 4.47
